Test system: COLO 205 colon
Assay: NCI tumour cell line growth inhibition, 48 h; in the data active means GI50 below about 0.43 µM; inactive means the rest
Allowed answers: TRUE = active, FALSE = inactive

C=CCn1c(=O)c2cnc(Nc3ccc(N4CCN(C)CC4)cc3)nc2n1-c1ccc2c(n1)[C@@](O)(CC)CC2    TRUE

Moving on to the next compound.
Please share the test call associated with `O=C(COc1ccc(/C=C2\Oc3ccccc3C2=O)cc1)Nc1nccs1` .
FALSE

###

System: SN12C renal
Test: NCI tumour cell line growth inhibition, 48 h
Some compounds, each annotated with its measured TGI.

Recorded TGI, per entry:
Cc1cc(=O)n(-c2ccccc2)c(=O)o1    > 100 µM
O=C(Cc1nc2ccccc2c(=O)n1-c1c(Cl)cccc1Cl)c1ccncc1    > 100 µM
COc1cc([N+](=O)[O-])c(S(=O)(=O)O)cc1NS(=O)(=O)c1ccc(C)cc1    > 100 µM
CC1C2=C(CC(C)(C)CC2=O)NC2=C1C(=O)CC(C)(C)C2    > 100 µM
O=C(O)CN=C(C(=NCC(=O)O)c1ccccc1)c1ccccc1    > 100 µM
CC12CCC([C@H](N3CCOCC3)/C1=N\OCCN1CCCC1)C2(C)C (stereo partly drawn)    > 100 µM
O=S1(=O)NNC(=NCc2ccc(Cl)c(Cl)c2)c2ccccc21    > 100 µM
O=C1c2ccccc2C(=O)C2C1C1C(=O)c3ccccc3C(=O)C21 (stereo not drawn)    > 100 µM
CCCCN(CCCC)c1ccc(C(=N)c2ccc(N(C)C)cc2)cc1    2.77 µM
COc1cc2cc[n+](C)c(Cc3ccccc3)c2cc1OC    > 100 µM

Can you look up the measured TGI of `COc1cc2ccccc2c2cc([N+](=O)[O-])oc12` for me?
> 48.7 µM

Same for CC(C)(C)OC(=O)NC1CC=CCC1NC(=O)OC(C)(C)C (stereo not drawn)
> 100 µM

Same for O=C(O)C1CCc2nnc(-c3ccccc3)n21 (stereo not drawn)
> 100 µM

Same for `COc1ccc(OC)c([N+](=O)[O-])c1-c1nc2sccn2c1/C=N/N=C(N)N`
> 100 µM

Same for `OC(CC(CC(O)(C(F)(F)Cl)C(F)(F)Cl)=NNc1ccccc1)(C(F)(F)Cl)C(F)(F)Cl`
> 10 µM

Same for COc1ccc(N)c(C(O)CCNC(C)=O)c1 (stereo not drawn)
> 100 µM

Same for `Cc1nc(Cl)c(Cl)c(Cl)n1`
1.26 µM

Same for COc1ccc(CN2C(=O)C(Cc3cc(OC)c(OC)c(C)c3OC)NC(=O)/C2=C/c2cc(OC)c(OC)c(C)c2OC)cc1 (stereo not drawn)
> 100 µM

Same for `CCOC(=O)N1CCN(c2c(C)nc(C)[nH]c2=O)CC1`
> 100 µM

Same for C[C@]12CCC3c4ccc(O)cc4CC[C@H]3C1CC(=O)N(N)C2=O (stereo partly drawn)
> 100 µM

Same for `NCC[Se][Se]CCN`
21.5 µM

Same for `COc1cccc(C(=O)Nc2ccc(CN3CCc4nc5cc(OC)c(OC)cc5cc43)cc2)c1`
16.4 µM

Same for Cc1ccc(C2CC(c3ccc([N+](=O)[O-])cc3)=Nc3ccccc3S2)cc1 (stereo not drawn)
> 100 µM

###

Test system: TK-10 renal
Assay: NCI tumour cell line growth inhibition, 48 h
assay_endpoint: TGI (µM)
Give the value in µM but do not write µM after it.

Recorded TGI, per entry:
CN1CCN(CCCOc2cccc3nc(Nc4ccc(Cl)c(F)c4)ccc23)CC1    3.28
CO[C@H]1[C@@H](O)[C@@H](C)O[C@@H](O[C@H]2CC[C@@]3(C)[C@H](CC[C@@H]4[C@@H]3CC[C@]3(C)[C@@H](C5=CC(=O)OC5)CC[C@]43O)C2)[C@@H]1O    0.0201
CC(=O)NC1=C(C)C(=O)c2c(nc3n2CCC3OC(=O)c2ccccc2)C1=N (centres undefined)    9.17
O=C(/C=C/C12c3ccccc3C(c3ccccc31)C1C(=O)N(c3ccccc3)C(=O)C12)c1ccc(Cl)cc1 (centres undefined)    25.1

Can you look up the measured TGI of `CN(C)CCNc1ccc2ncnc3c2c1C(=O)c1ccccc1-3` for me?
3.92
